- Tested on: apyrase
- Procedure text: Screen for apyrase inhibitors (Method 1, in vitro phosphate-release absorbance assay)
- Type: biochemical
- Condition label: inhibitor conc at 1 mM stock, 1 hr room temperature, absorbance 630 nm; rounded average of two assay results
Entries and their measured % Inhibition of Apyrase follow.
Use % as the unit, but write only the number.

>>> df
                                   compound  measured_value
0  COc1ccc(S(=O)(=O)N2CCc3ccccc32)cc1C(=O)Nc1cccc(Br)c1 [I-525]              55
1  O=C(Nc1cccc([N+](=O)[O-])c1)c1ccc(Br)c(S(=O)(=O)Nc2ccc(F)cc2)c1 [I-19]              50
2  Cc1ccc(N(C)S(=O)(=O)c2cccc(C(=O)Nc3ccc(C)cc3C)c2)cc1 [I-591]              41

Annotate the compound O=C(Nc1cccc2cccnc12)c1cccc(NS(=O)(=O)c2cccs2)c1 [I-630] with its measured % Inhibition of Apyrase.
66
